target.entity: Vasopressin V1a receptor (Rattus norvegicus)
assay.remarks: Relative affinity at Vasopressin V1 receptor compared to vasopressin.
Give measured RA for each item. Keep answers brief.
Please give the number followed by its unit.

Enquiry: Can you share its RA? I mean this molecule: `NC(=O)CC[C@@H]1NC(=O)[C@H](Cc2ccc([N+](=O)[O-])cc2)NC(=O)[C@@H](Cc2ccc(O)cc2)NC(=O)[C@@H](N)CSSC[C@@H](C(=O)N2CCC[C@H]2C(=O)N[C@@H](CCCN=C(N)N)C(=O)NCC(N)=O)NC(=O)[C@H](CC(N)=O)NC1=O`
Return: 1.2%

Enquiry: Can you share its RA? I mean this molecule: `CC(C)[C@@H]1NC(=O)[C@H](Cc2ccccc2)NC(=O)[C@H](Cc2ccc([N+](=O)[O-])cc2)NC(=O)CCSSC[C@@H](C(=O)N2CCC[C@H]2C(=O)N[C@@H](CCCCN)C(=O)N[C@H](Cc2ccc(O)cc2)C(N)=O)NC(=O)[C@H](CC(N)=O)NC1=O`
Return: 2.3%

Enquiry: Can you share its RA? I mean this molecule: `NC(=O)CC[C@@H]1NC(=O)[C@H](Cc2ccc([N+](=O)[O-])cc2)NC(=O)[C@H](Cc2ccc(O)cc2)NC(=O)[C@@H](N)CSSC[C@@H](C(=O)N2CCC[C@H]2C(=O)N[C@@H](CCCN=C(N)N)C(=O)NCC(N)=O)NC(=O)[C@H](CC(N)=O)NC1=O`
Return: 1.6%

Enquiry: Can you share its RA? I mean this molecule: `[N-]=[N+]=Nc1ccc(C[C@@H]2NC(=O)[C@@H](Cc3ccc(O)cc3)NC(=O)[C@@H](N)CSSC[C@@H](C(=O)N3CCC[C@H]3C(=O)N[C@@H](CCCN=C(N)N)C(=O)NCC(N)=O)NC(=O)[C@H](CC(N)=O)NC(=O)[C@H](CCC(N)=O)NC2=O)cc1`
Return: 2%

Enquiry: Can you share its RA? I mean this molecule: `C[C@@H](C(=O)N[C@@H](CCCN=C(N)N)C(=O)N[C@@H](CCCC/N=C(/N)c1ccc(N=[N+]=[N-])cc1)C(N)=O)N(C)C(=O)[C@H]1CSSCC2(CCCC2)C(=O)N[C@@H](Cc2ccc(O)cc2)C(=O)N[C@@H](Cc2ccccc2)C(=O)N[C@@H](CCC(N)=O)C(=O)N[C@@H](CC(N)=O)C(=O)N1`
Return: 194%
